Ref: patent EP1363899B1

measured.on: alpha-1D adrenoceptor (Homo sapiens)
Construct: expressed in transfected cells; host or cells: CHO-K1
Sequence (P25100 1-572): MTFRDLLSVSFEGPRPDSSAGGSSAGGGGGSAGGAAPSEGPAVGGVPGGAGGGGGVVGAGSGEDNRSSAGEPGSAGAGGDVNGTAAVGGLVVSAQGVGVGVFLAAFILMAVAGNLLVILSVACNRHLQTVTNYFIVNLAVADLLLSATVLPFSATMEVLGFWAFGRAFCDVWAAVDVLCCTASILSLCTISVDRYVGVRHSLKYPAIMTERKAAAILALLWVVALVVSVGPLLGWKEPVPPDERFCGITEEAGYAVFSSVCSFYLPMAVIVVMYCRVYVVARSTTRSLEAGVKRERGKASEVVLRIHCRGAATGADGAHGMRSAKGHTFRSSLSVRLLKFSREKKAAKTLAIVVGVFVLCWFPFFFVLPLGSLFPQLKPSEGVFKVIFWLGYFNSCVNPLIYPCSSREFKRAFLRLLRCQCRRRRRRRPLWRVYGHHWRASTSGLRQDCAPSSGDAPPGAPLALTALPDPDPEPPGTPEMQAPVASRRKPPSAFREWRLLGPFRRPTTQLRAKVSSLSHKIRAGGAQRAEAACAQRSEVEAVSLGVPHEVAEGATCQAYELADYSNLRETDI
assay.overview: [3H]prazosin binding (alpha1-adrenoceptor) assay, alpha-1D
test.conditions: membranes of transfected CHO-KI cells, read-out: affinity towards the alpha-1D adrenoceptor (pKi) (converted)
Entries and their Ki values follow.
value.type: Ki (µM)

compound	val
COc1cc2nc(N3CCc4c([nH]c5ccccc45)C3)[nH]c(=O)c2cc1OC	0.0209
COc1cc2[nH]c(N3CCc4c(cccc4N4CCOCC4)C3)nc(=O)c2cc1OC	0.955
CCCCc1ncc2n1CCN(c1nc(=O)c3cc(OC)c(OC)cc3[nH]1)C2	0.0195
COc1cc2c(cc1OC)CN(C1=Nc3cc(OC)c(OC)cc3S(=O)(=O)N1)CC2	0.0661
COc1cc2nc(N3CCc4c(ncn4-c4ccc5c(c4)OCO5)C3)[nH]c(=O)c2cc1OC	0.178
COc1cc2nc(N3CCc4c(ncnc4N4CCN(C)CC4)C3)[nH]c(=O)c2cc1OC	0.575
COc1cc2[nH]c(N3CCc4cc(O)c(O)cc4C3C)nc(=O)c2cc1OC (centres unmarked)	38.9
COc1ccc(-c2cccc3c2CCN(c2nc4cc(OC)c(OC)cc4c(=O)[nH]2)C3)cc1	10

###

measured.on: alpha-1A adrenoceptor (Homo sapiens, UniProt P35348)
Construct: expressed in transfected cells; host or cells: CHO-K1
Sequence (P35348 whole entry): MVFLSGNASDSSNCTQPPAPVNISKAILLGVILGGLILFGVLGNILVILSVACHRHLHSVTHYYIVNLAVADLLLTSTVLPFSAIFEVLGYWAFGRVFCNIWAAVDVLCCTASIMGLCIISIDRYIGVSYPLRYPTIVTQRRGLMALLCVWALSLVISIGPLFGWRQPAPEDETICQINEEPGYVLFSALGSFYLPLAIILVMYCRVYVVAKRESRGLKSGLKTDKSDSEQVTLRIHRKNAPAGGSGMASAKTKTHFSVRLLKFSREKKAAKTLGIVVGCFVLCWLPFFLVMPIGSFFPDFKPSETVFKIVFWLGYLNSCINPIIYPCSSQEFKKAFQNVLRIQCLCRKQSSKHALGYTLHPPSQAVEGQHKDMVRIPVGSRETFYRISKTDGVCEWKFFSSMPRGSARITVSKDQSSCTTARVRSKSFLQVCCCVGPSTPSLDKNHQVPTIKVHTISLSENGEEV
assay.overview: [3H]prazosin binding (alpha1-adrenoceptor) assay, alpha-1A
test.conditions: membranes of transfected CHO-KI cells, read-out: affinity towards the alpha-1A adrenoceptor (pKi) (converted)
Ki under 2 nM gets Criterion met, anything at or over 2 nM gets Criterion not met.

smiles.notation	measured.on	class
COc1cc2[nH]c(N3CCc4c(ncn4C4CCCCC4)C3)nc(=O)c2cc1OC	alpha-1A adrenoceptor (Homo sapiens, UniProt P35348)	Criterion not met
COc1cc2nc(N3CCc4c(cccc4-c4cnccc4N)C3)[nH]c(=O)c2cc1OC	alpha-1A adrenoceptor (Homo sapiens, UniProt P35348)	Criterion not met
COc1cc2c(cc1OC)CN(C1=Nc3cc(OC)c(OC)cc3S(=O)(=O)N1)CC2	alpha-1A adrenoceptor (Homo sapiens, UniProt P35348)	Criterion met
COc1cc2nc(N3CCc4c(cccc4N=CN(C)C)C3)[nH]c(=O)c2cc1OC	alpha-1A adrenoceptor (Homo sapiens, UniProt P35348)	Criterion not met
CCCCc1ncc2n1CCN(c1nc(=O)c3cc(OC)c(OC)cc3[nH]1)C2	alpha-1A adrenoceptor (Homo sapiens, UniProt P35348)	Criterion met
